# Test details: NFAT Signaling Pathway (AID 444);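 also: carbachol stimulus at about its EC50 of 1 µM final; % is scaled to controls: 0 for no effect and ±100 for the full control effect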
# Conditions used: Jurkat NFAT-bla M1, carbachol, beta-lactamase ratio, 5 h; at 7.69 µM (top of the series) unless noted
Records with an inconclusive call do not appear. Calls of active or inactive are those of the source. Calls follow the shape of the dose curve; as a rule, active = well fitted curve in either direction with a large enough effect (not every such curve was filed as active); inconclusive = small, poorly fitted or top-dose-only effect, or another doubt; inactive = flat fitted curve, though single readings scatter.
In this exercise, the only acceptable responses are active, inactive

Cc1cc(N=Cc2c(CO)cnc(C)c2O)c(N=Cc2c(CO)cnc(C)c2O)cc1C.[Zn]: inactive
CCCCC/C=C\C[C@H](O)/C=C\c1cccc(C[C@H](O)CCCCO)n1: inactive
CC(C)(C)c1ccc(O)c(CN(Cc2cc(C(C)(C)C)ccc2O)C2CCCCC2)c1: inactive

GET /call?item= "C=C1CC[C@H](O)C/C1=C/C=C1\CCC[C@]2(C)[C@H]1CC[C@H]2[C@@H](C)CCCC(C)C" returns the recorded outcome of this test.
inactive

GET /call?item= "CC1=CC(C)(C)Nc2ccc(CSc3ccccc3)cc21" returns the recorded outcome of this test.
inactive

GET /call?item= "O=C(O)[C@@H]1[C@@H](C(=O)Nc2ncccn2)[C@@H]2C=C[C@@H]1O2" returns the recorded outcome of this test.
inactive

GET /call?item= "CC(C)NCC[C@@H](O)c1cc2ccccc2o1" returns the recorded outcome of this test.
inactive

GET /call?item= COc1ccc2c(c1)CCC1C2CC[C@]2(C)[C@H](NCCCCCCN3C(=O)C=CC3=O)CC[C@@H]12 (stereo not given in full) returns the recorded outcome of this test.
inactive

GET /call?item= "NC(N)=NC[C@H](N)C(=O)O" returns the recorded outcome of this test.
inactive

GET /call?item= "O=C1c2ccccc2N[C@H](c2cc(Cl)cc(Cl)c2O)N1CCc1ccccn1" returns the recorded outcome of this test.
inactive

GET /call?item= "O=C(CN1C(=O)c2ccccc2C1=O)[C@@H](O)CN1C(=O)c2ccccc2C1=O" returns the recorded outcome of this test.
inactive

GET /call?item= "Cc1ccc(CSC(N)=Nc2ccccc2)cc1C" returns the recorded outcome of this test.
inactive

GET /call?item= "CC1(C)[C@@H]2CC[C@@]1(CS(=O)(=O)Nc1ccccc1)C(=O)C2" returns the recorded outcome of this test.
inactive

GET /call?item= "CC(=O)[C@H]1CC[C@@H]2[C@]1(C)CC=C1[C@]23C=C[C@]2(C[C@H](O)CC[C@@]12C)[C@H](C(=O)O)[C@@H]3C(=O)O" returns the recorded outcome of this test.
inactive

GET /call?item= "O=C(O)/C(=C\c1ccccc1)Cc1ccccc1" returns the recorded outcome of this test.
inactive

GET /call?item= "O=c1ccnc(SCc2ccc(Cl)cc2)[nH]1" returns the recorded outcome of this test.
inactive

GET /call?item= "O=C(O)c1cc(C(=O)O)cc(N2C(=O)c3ccccc3C2=O)c1" returns the recorded outcome of this test.
inactive

GET /call?item= COC(=O)[C@@H]1C(O)[C@@H](C(=O)OC)[C@H](C)N(C)[C@@H]1C (stereo not given in full) returns the recorded outcome of this test.
inactive

GET /call?item= "CC(C)(CN)CN" returns the recorded outcome of this test.
inactive

GET /call?item= "CCCCCCCCCCCCCCCC(=O)NC[C@@H](COP(=O)([O-])OCC[N+](C)(C)C)OCC" returns the recorded outcome of this test.
active

GET /call?item= "C[N+]1([C@H](CO)Cc2c[nH]c3ccccc23)Cc2ccccc2C1" returns the recorded outcome of this test.
inactive

---

# Test details: qHTS assay for small molecule disruptors of the mitochondrial membrane potential - 1 hr assay (AID 651754); also: nearly all actives have a fitted effect of over 35% in size
# Conditions used: series mostly up to 92.2 µM
Inconclusive results are not listed. Active and inactive are the calls of the source. Calls follow the shape of the full dose curve.
In this exercise, the only acceptable responses are YES = active, NO = inactive

Illustrative cases are given below, each with its answer.
Oc1cc2c(cc1O)[C@H]1c3ccc(O)c(O)c3OC[C@@]1(O)C2: NO
Nc1cnn([C@@H]2O[C@H](CO)[C@@H](O)[C@H]2O)c(=O)n1: NO

GET /call?item= "CC(CCC(=O)O)(c1ccc(O)cc1)c1ccc(O)cc1" returns the recorded outcome of this test.
NO

GET /call?item= "Nc1cc(C(=O)O)c(O)c(S(=O)(=O)O)c1" returns the recorded outcome of this test.
NO

GET /call?item= "O=Nc1ccc(Nc2ccccc2)cc1" returns the recorded outcome of this test.
NO

GET /call?item= "Cc1c(C(=O)O)c(O)cc2c1C(=O)c1c(O)c([C@H]3O[C@H](CO)[C@@H](O)[C@H](O)[C@H]3O)c(O)c(O)c1C2=O" returns the recorded outcome of this test.
NO

GET /call?item= "CC(=O)c1ccc(Cl)c(Cl)c1Cl" returns the recorded outcome of this test.
NO

GET /call?item= CCC(Cl)CC(Cl)C(Cl)C(Cl)C(Cl)C(C)Cl (stereo not drawn) returns the recorded outcome of this test.
NO

GET /call?item= "Nc1ccc(N=Nc2ccccc2)c(N)c1" returns the recorded outcome of this test.
YES

GET /call?item= "Clc1nc2ccccc2nc1Cl" returns the recorded outcome of this test.
NO

GET /call?item= O=C(OCC1CO1)C1CCCCC1C(=O)OCC1CO1 (stereo not drawn) returns the recorded outcome of this test.
NO

GET /call?item= "Nc1ccccc1O" returns the recorded outcome of this test.
YES

GET /call?item= "Oc1c(Cl)cc(Cl)c(Cl)c1Cl" returns the recorded outcome of this test.
YES

---

# Tgt: Glucocorticoid receptor (Homo sapiens)
# Test details: GR-GFP Redistribution (AID 450); also: potency is read from the fitted curve at half-maximal effect
# Conditions used: U2OS GR-GFP nuclear translocation, laser cytometry, 2 h
# Experimental: NIH Molecular Libraries Screening Centers Network [MLSCN] NIH Chemical Genomics Center [NCGC] […] GR-GFP U2OS cells were maintained in DMEM with Glutamax and high glucose, 1% v/v penicillin-streptomycin, and 0.5 mg/mL Geneticin. […] The plates were read by the Acumen Explorer using a 1 x 8 um scan of the whole well area. PI fluorescence triggered the collection of PI and GFP signals. […]
Activity calls are given as the source filed them.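 Rule for the calls: active = compounds whose dose series gives a full or clear partial fitted curve of increased nuclear translocation; inconclusive = weak partial curve or effect only at the top dose; inactive = no dose-dependent translocation response.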
Value type: Potency

Solved cases (6 shown):
c1ccc(CCCNc2nnnc3ccccc23)cc1: > 46 µM (inactive)
OCCNc1ncnc2c1ncn2[C@@H]1O[C@@H](CO)[C@H](O)[C@@H]1O: > 46 µM (inactive)
NCc1ccc(C(=O)O)cc1: > 46 µM (inactive)
O=C(O)/C(Cc1ccc([N+](=O)[O-])cc1)=N/O: > 46 µM (inactive)
O=C(O)C[C@H](Cc1ccc2c(c1)OCO2)C(=O)O: > 46 µM (inactive)
S=C(Nc1ccc2cn[nH]c2c1)Nc1ccc2cn[nH]c2c1: > 46 µM (inactive)

// input: 8 compounds below; output: Potency for each
1. N[C@@H](CSCc1ccc(I)cc1)C(=O)O
2. Cn1c(=S)c2[nH]c(SCCCc3ccccc3)nc2n(C)c1=O
3. Cn1c(=O)c2[nH]c(SCCN3CCOCC3)nc2n(C)c1=S
4. N[C@H](Cc1ccc(O)c(I)c1)C(=O)O
5. O=C(O)CC12C[C@H]3C[C@@H](CC(O)(C3)C1)C2
6. O=C(O)CCCN1CCCCC1
7. N#C[C@@H](N=Nc1ccccc1C(=O)O)C(N)=O
8. Clc1ccc(CSc2ncnc3c2ncn3[C@@H]2CCCCO2)cc1

> 46 µM (inactive)
> 46 µM (inactive)
> 46 µM (inactive)
> 46 µM (inactive)
> 46 µM (inactive)
> 46 µM (inactive)
> 46 µM (inactive)
> 46 µM (inactive)

// input: 2 compounds below; output: Potency for each
1. CC(C)Cn1cnc2c(Sc3c([N+](=O)[O-])ncn3C)nc(N)nc21
2. O=[N+]([O-])c1ccc2c(c1)Cc1cc(N=Cc3ccc4c(c3)OCO4)ccc1-2

> 46 µM (inactive)
> 46 µM (inactive)

---

# Test details: Stat Signaling Pathway (AID 446);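 also: ME-180 cervical cancer cells given 40 pM IL-6 alongside compound; SIE-controlled beta-lactamase reporter measured as 460/530 nm FRET emission ratio; % is scaled to controls: 0 for no effect and ±100 for the full control effect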
# Conditions used: ME-180 (cervical carcinoma) SIE beta-lactamase reporter, IL-6 stimulated, 5 h; at 7.69 µM (top of the series) unless noted
Inconclusive results are not listed. Active and inactive are the calls of the source. The call rests on the fitted dose curve; in most records, active means well fitted curve in either direction with a large enough effect (not every such curve was filed as active); inconclusive means small, poorly fitted or top-dose-only effect, or another doubt; inactive means flat fitted curve, though single readings scatter.
Give measured activity, negative = inhibition for each item. Keep answers brief.

Nc1nc(Cl)cc(NCCO)n1: 4.67% (inactive)
O[C@H](CN1CCN(c2cccc(Cl)c2)CC1)C(c1ccccc1)c1ccccc1: 24.9% [at 38 µM] (inactive)
Cn1c(=O)c2c(ncn2CCSS(=O)(=O)O)n(C)c1=O: -2.16% (inactive)
C(=N/Nc1ccccn1)/c1cccnc1: 2.75% (inactive)
CN(C)C[C@H]1CCC2=C(C1=O)C(c1ccc(Cl)c(Cl)c1)C1=C(CC[C@H](CN(C)C)C1=O)O2: 13.6% (inactive)
O=C(O)/C=C(/C(=O)O)[C@]12CCN3CC4=CCO[C@@H]5CC(=O)N[C@@H]1[C@H]5[C@H]4C[C@H]32: -7.59% (inactive)
O=C(O)CCNCC(=O)O: -2.35% (inactive)
O=c1oc2ccccc2c(O)c1/C=N/c1nc(-c2ccc(O)c(O)c2)cs1: -11.7% (inactive)

// input: 3 compounds below; output: activity, negative = inhibition for each
1. C/C(=N/O)[C@@H]1C[C@H](CC(=O)O)C1(C)C
2. CSc1ccc2c(c1)N(CCCN(C)C)c1ccccc1S2
3. Nc1nc(-c2cccc([N+](=O)[O-])c2)cc(-c2cc(-c3cccc([N+](=O)[O-])c3)nc(N)n2)n1

18.2% (inactive)
2.23% (inactive)
3.52% (inactive)
